Would you kindly list AC50 for each of these compounds?
# Study target: Muscarinic acetylcholine receptor M1 (Homo sapiens); also: assay procedure not described here
# Sequence (P11229 whole entry): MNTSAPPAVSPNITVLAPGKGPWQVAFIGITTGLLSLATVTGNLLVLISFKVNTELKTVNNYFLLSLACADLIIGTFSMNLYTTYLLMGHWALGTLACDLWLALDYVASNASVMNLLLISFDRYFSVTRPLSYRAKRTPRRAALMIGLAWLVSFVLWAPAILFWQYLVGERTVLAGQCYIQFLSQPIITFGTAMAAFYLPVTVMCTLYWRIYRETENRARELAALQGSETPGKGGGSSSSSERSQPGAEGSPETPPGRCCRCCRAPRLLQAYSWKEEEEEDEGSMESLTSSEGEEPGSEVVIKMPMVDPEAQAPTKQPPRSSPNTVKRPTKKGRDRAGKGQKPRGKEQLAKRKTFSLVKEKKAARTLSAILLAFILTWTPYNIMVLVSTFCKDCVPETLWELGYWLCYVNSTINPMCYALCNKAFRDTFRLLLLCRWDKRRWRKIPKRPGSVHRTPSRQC
# Type: functional

Entry CC(=O)OCC1=C(C(=O)O)N2C(=O)[C@@H](NC(=O)CSc3ccncc3)[C@H]2SC1 has what AC50?
> 10 µM

Entry CC1NCCOC1c1ccccc1 (stereo not drawn) has what AC50?
> 10 µM

Entry CN(C)CCOCC(=O)NC12CC3CC(CC(C3)C1)C2 has what AC50?
> 30 µM

---

# Study target: 5-hydroxytryptamine receptor 2B (Homo sapiens); also: assay procedure not described here
# Sequence (P41595 whole entry): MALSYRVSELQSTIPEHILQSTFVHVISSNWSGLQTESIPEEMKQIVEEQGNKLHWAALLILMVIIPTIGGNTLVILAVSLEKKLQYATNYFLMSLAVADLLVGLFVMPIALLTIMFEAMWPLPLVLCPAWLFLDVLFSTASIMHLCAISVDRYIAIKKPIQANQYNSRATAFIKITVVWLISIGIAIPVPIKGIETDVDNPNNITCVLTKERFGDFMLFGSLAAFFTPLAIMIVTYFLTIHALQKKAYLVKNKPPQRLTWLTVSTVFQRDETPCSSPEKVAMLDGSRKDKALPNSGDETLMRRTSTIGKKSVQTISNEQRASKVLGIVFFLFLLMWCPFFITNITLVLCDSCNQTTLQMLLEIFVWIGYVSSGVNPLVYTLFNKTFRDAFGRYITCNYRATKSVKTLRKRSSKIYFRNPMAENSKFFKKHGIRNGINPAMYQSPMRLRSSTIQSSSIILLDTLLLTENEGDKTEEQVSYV
# Assay type: functional, cell-based
Would you kindly list AC50 for each of these compounds?

Entry C[C@H](Nc1ncnc2[nH]cnc12)c1cc2cccc(Cl)c2c(=O)n1-c1ccccc1 has what AC50?
> 30 µM

Entry C[C@]12C=CC(=O)C=C1CC[C@@H]1[C@@H]2[C@@H](O)C[C@@]2(C)[C@H]1CC[C@]2(O)C(=O)CO has what AC50?
> 10 µM

Entry CC[N+](CC)(CCNC(=O)C(=O)NCC[N+](CC)(CC)Cc1ccccc1Cl)Cc1ccccc1Cl has what AC50?
> 30 µM

Entry Oc1cc(O)c2c(c1)O[C@H](c1ccc(O)c(O)c1)[C@@H](O)C2 has what AC50?
> 10 µM

Entry Nc1nc(Cl)nc2c1ncn2[C@@H]1O[C@H](CO)[C@@H](O)[C@@H]1F has what AC50?
> 30 µM
